system: MS2 coat protein; assay: apparent KD of MS2 coat protein; designed switch direction (-1 OFF switch, 1 ON switch): 1; higher = weaker reporter binding; details: input ligand: microRNA oligo, concentration not stated
Listed here are sequences together with their documented apparent KD of MS2 coat protein.

macromolecule-sequence	apparent KD of MS2 coat protein
GAAACAUGACGAGGAUAUGGUACAUGAGGAUCACCCAUGUAUGUACCACGACGCGUACGUCGAAUCCAGAAGGCGUCGUGAAAG [Mat - Same State NG 2 - JL mod - D20] (Eterna round: R96, puzzle: Same State NG 2)	51.1 nM
AUAGUUGCCGAAGGAUAUGAUGAGGAUCACCCAUCAGAAGGUUGGCUAUUGGGUGGACAUGAGGAUCACCCGUGUUCUUUGGUA (Eterna round: R96, puzzle: Same State NG 1)	47.5 nM
CGGCUCCGUGGAGGAUAUGGGCCUGCCCGGGAUACCGGGCCUAACACAUGAGGAUCACCCAUGUCCCAGAAGGCCGCUGGAGCC [Cebeladi] (Eterna round: R96, puzzle: Same State NG 2)	26.2 nM
GCUAGGAAAUAAGCCAACAUGAGGAUCACCCAUGUAUGUUGGUAGGAUAUCGUUUGCAAAGCAAACGAGAAGGGCUAACCUAGC [Mat - Same State NG 3 - JL Mod - D70] (Eterna round: R96, puzzle: Same State NG 3)	70.6 nM
UCAAGAUCGCGAGGAUAUCGCGAGGAUCACCCGUGAGAAGGCGCAGAGCCGAGGAUCACCCGGCUGAUCCUGAGGAGGAGGUAA (Eterna round: R96, puzzle: Same State NG 1)	234 nM
CUCAACAACACAGGAUAUCCAGGUAAAAGACCUGGAGAAGGGUGACCAACAUGAGGAUCACCCAUGUGACAGCCAGGCUGUCUG [Isbitiqu] (Eterna round: R96, puzzle: Same State NG 1)	4.41 nM
GGAUCGGAGGCAGGAUAUGGGCUCAGAACAUGAGGAUCACCCAUGUAAAACGGCGCAAUGCGCCACCAGAAGGGCCUCCGACCG [Inmadibi] (Eterna round: R96, puzzle: Same State NG 2)	17.8 nM
UUAUCUAUCCGAGGAUAUCCAUAUAAUUUACAUGAGGAUCACCCAUGUUAUUGGGAGUUUUUUUAGGAGAAGGCGGAUGUAGAU [JR_SSNG2_Sub052] (Eterna round: R96, puzzle: Same State NG 2)	79.2 nM
UGGCUCAGACGAGGAUAUGAUCAUGGCGCUUCGGCGCAUACAUGAGGAUCACCCAUGUAAAGUGAUCAGAAGGCGUCUGAGCCA [SSNG2/7-A2] (Eterna round: R96, puzzle: Same State NG 2)	11.6 nM

---

system: MS2 coat protein; test: apparent KD of MS2 coat protein; designed switch direction (-1 OFF switch, 1 ON switch): -1; higher = weaker reporter binding; settings: input ligand: FMN 200 uM
observable: apparent KD of MS2 coat protein (nM)

macromolecule-sequence	units-text	numeric-result
UGCGCUUAAGGAUAUACUUCGGUGCGCCGAGAGUACGGCUAACUUGAGGAUCACCCAAGUAGAAGGUAAGAAAC [Esleberibe] (Eterna round: R97, puzzle: Exclusion 2)	nM	42
ACAAUGUCAGGAUAUGAACAGCGCGGUCACAAGGAUUGCUUUCAGAAGGGACAUGAGGAUCACCCAUGUCGAUA [Eternabot (L1) Solution 91] (Eterna round: R97, puzzle: Exclusion 4)	nM	23
GAAAAGGUAGAGGAUAUUUCAGAUCAAAGCUGCAAAGAAGGCUGCACAUGAGGAUCACCCAUGUGGUCAAUAAA [Mod of Quesina 12 - Jieux - Exclusion 6] (Eterna round: R97, puzzle: Exclusion 6)	nM	59.7
CGCAAAAGGAAGGAUAUGCUAGACGAAAGUCUAGCAGAAGGUCCUACAUGAGGAUCACCCAUGUGUCCUAUGCG [Mat - Exclusion 6 - Eli Mod - D11] (Eterna round: R97, puzzle: Exclusion 6)	nM	63.1
AGAAAAGACCUAGGAUAUACCCAGUGGGUAGAGGGUCAUAAUAAUAAAACAUGAGGAUCACCCAUGUAGAAGGAGGGAAAGAAG [Biriusdibe] (Eterna round: R96, puzzle: Exclusion NG 2)	nM	58.1
CAGUACUGAGGAUAUACAUGAGGAUCACCCAUGUGUGUGAGAUUUGUGUGGUUGUUUUGUAGAAGGCGGUGCUG [JR_Ex3_Sub031] (Eterna round: R97, puzzle: Exclusion 3)	nM	19.1
AUUUACGGAGGAUAUACUUGAGGAUCACCCAAGUGGAGUCCCGUUUGGGCGGUAAAUAGUAGAAGGCCGUCCUA [jl-ex3-4.46 ViennaUCT mod] (Eterna round: R97, puzzle: Exclusion 3)	nM	27.7
CUACUCGUUGUGAGGAUAUCGUUUUCGUCACGGAUCGAGAAGGCACAUGAGGAUCACCCAUGUUUGAUGUGGAU [JR_BMOE4_Sub091] (Eterna round: R96, puzzle: Brourd's mod of Exclusion 4)	nM	89
GUUAAUUGUCACAUGGGUGACAUGAGGAUCACCCAUGUCACAAGCUUUUUGCUCGUCUUAUAAUUAACCCAUGUGAC [Stov1/12-A2] (Eterna round: R97, puzzle: Sensor, turn-off variant 1)	nM	14.7
AUGUGACAUGAGGAUCACCCAUGUCAGGAUAUUUCCAAAAUAAAAUAAAACCGCGUGGAAAGAAGGGACGUGGU [EX1 A.8] (Eterna round: R97, puzzle: Exclusion 1)	nM	23.4
AACCUGAGGCAAAGCUUUAGGUGUACAUGAGGAUCACCCAUGUAGGAUAUGGUAGGCUUUGCUUACCAGAAGGACAUUAUGAUG [Mat - Exclusion NG 3 - Mod of JL - D50] (Eterna round: R96, puzzle: Exclusion NG 3)	nM	68.6
AAAAAAAAAGUGAGGAUAUGCUCUACCUCGGUAGAGCAGAAGGCACAUGAGGAUCACCCAUGUGACUCCUCAUU [Omei Ex4B B25] (Eterna round: R97, puzzle: Brourd's mod of Exclusion 4)	nM	29.6

---

system: K4 kissing-loop RNA reporter; experiment: apparent KD of K4 kissing-loop reporter; higher = weaker reporter binding; settings: Eterna round: R107; input ligand: tryptophan 2.4 mM;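 also: bound reporter read as fluorescence of individual clusters on recovered sequencing chips by microscopy, with normalized cluster intensities fitted with a binding model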
Reported apparent KD of K4 kissing-loop reporter by item:
observable: apparent KD of K4 kissing-loop reporter (nM)

macromolecule-sequence	tested-target	numeric-result
UUUGGAUUGCGCUAAGAGUGCAAGCGCCAACGAGGACCGGUACGGCCGCCACUCGCGGAGGAGUCCAGUGAUGUUGGACGGCCCG [Orbile]	K4 kissing-loop RNA reporter	183
GGAUCCACCAGUGAUGUUGGAGUAAUCUCCAAGGAUAUGACGAAAGUCAGAAGGUGGUAAAUAGACGUCAAAGACGUCGGAUCCA [FmnA 22 #SwitchBubble #K4Early]	K4 kissing-loop RNA reporter	69
UCCUGCACGGUCGAUACCAGCCUAUGCAGUGAUGUUGUAAGGUUGUCACUUUAGUACGAAGGCCCUUGGCAGCGAUGAUGUAACA [theeternabot_exclusion_KL_Theo_B_41]	K4 kissing-loop RNA reporter	464

---

test system: MS2 coat protein; test: apparent KD of MS2 coat protein; designed switch direction (-1 OFF switch, 1 ON switch): -1; higher = weaker reporter binding; settings: Eterna round: R95; input ligand: FMN 200 uM
This section presents sequences with their documented apparent KD of MS2 coat protein values.

macromolecule-sequence	tested-target	apparent KD of MS2 coat protein, nM
AGAAAUGCCCAUGGCCACAAGCUUUUCGCUUGUCUUACUACAUGAGGAUCACCCAUGUAACAUGGGCUCCUGAUAAU [Resoriraqu] (puzzle: Sensor v3, turn-off variant 2)	MS2 coat protein	12.5
UGGGUUCUCCAUAGAAGUAACAUGAGGAUCACCCAUGUAGGGCAAGUUUUUUGCUCGUCAUAGGUUGAGGGAUUGGA [JR_SV3TOV1_Sub017] (puzzle: Sensor v3, turn-off variant 1)	MS2 coat protein	968
GAUUAUGCGAGCUUUAGGGACAUGAGGAUCACCCAUGUUCGUCUUAUUGAUCUAGGUACACUAACAUACCUAAAUCU [JMF 17] (puzzle: Sensor v3, turn-off variant 1)	MS2 coat protein	19.8
AGUACAUUCACGAAAGUGAAUGUACAAUAAGCUUGUGGAACAUGAGGAUCACCCAUGUCCUCAUAAGCUCGUCUUAU [Mat - Sensor v3 - Turn-off var 2 - D31] (puzzle: Sensor v3, turn-off variant 2)	MS2 coat protein	16.1
AGAUGUAGAUACCGGUCCUACAUGAGGAUCACCCAUGUAGCUAGACGUGCGGGCGGCGCUCGUCGGACUACCAGUAG [salish99_TOv1_r3_098] (puzzle: Sensor v3, turn-off variant 1)	MS2 coat protein	39.4
AGAAAUGCCCAUGGCCACAAGCUUUCUGCUUGUCUUACUACAUGAGGAUCACCCAUGUAACAUGGGCUCCUGAUAAU [Enzainge] (puzzle: Sensor v3, turn-off variant 2)	MS2 coat protein	13.2
AAAGAAGAGAGAAAAUAACACAUGAGGAUCACCCAUGUGAGAAGUUGAGGGUGAUACAGGCUUUUUGCUCGUCUUAU (puzzle: Sensor v3, turn-off variant 1)	MS2 coat protein	233
GGUUGUUGUUUCCGUUCUUACAUGAGGAUCACCCAUGUUUCUUGUCGUGCUCGCGUUGCUCGUCUGGCUGCCUGUUG [salish99_TOv1_r3_070] (puzzle: Sensor v3, turn-off variant 1)	MS2 coat protein	41.2
GAUUAUGCGAGCUUUAGGGACAUGAGGAUCACCCAUGUUCGUCUUAUUGGUCUGGGUACACUAACAUACCUAAAUCU [JMF 22] (puzzle: Sensor v3, turn-off variant 1)	MS2 coat protein	33.4
GCUUGGCGAGGAUAUACAUGAGGAUCACCCAUGUGAGAGAAAGAAGUGAGGAAGAAAAGUAGAAGGCGCUGAGG [Mat - Exclusion 3 - Mod of Salish D60] (puzzle: Exclusion 3)	MS2 coat protein	165
GAUUAUGCGAGCUUUAGGGACAUGAGGAUCACCCAUGUUCGUCUUAUUAGUCUGGGUGCGCUAACAUACCUAAAUCU [JMF 53] (puzzle: Sensor v3, turn-off variant 1)	MS2 coat protein	90.1
UUUAAUUUUUUUUUUUUACAAGCUUUUUGCUCGUCUUAUACAUGAGGAUCACCCAUGUGGGUAGGAGAUAAAUUAUC [JMF 16] (puzzle: Sensor v3, turn-off variant 2)	MS2 coat protein	32.1
AAAGAACUAGGAUAUCGCGCUACAGACAUGAGGAUCACCCAUGUAAUCGCAUGUCAAGUUUGAGAAGGAGUGAAGA [Usissodi] (puzzle: Exclusion 5)	MS2 coat protein	21.5
GGUUGGCGAGGAUAUACAUGAGGAUCACCCAUGUGAGAGAAACAAGUGAGGAAGAAAAGUAGAAGGCGCUGACG [salish99_ex3_r3_023] (puzzle: Exclusion 3)	MS2 coat protein	112

Where these numbers come from: the supplement of paper PMC9170038
